I'd appreciate it if you could supply pIC50 values for the items below.
- measurement_target: Receptor-interacting serine/threonine-protein kinase 3 (Homo sapiens)
- Sequence (Q9Y572 whole entry): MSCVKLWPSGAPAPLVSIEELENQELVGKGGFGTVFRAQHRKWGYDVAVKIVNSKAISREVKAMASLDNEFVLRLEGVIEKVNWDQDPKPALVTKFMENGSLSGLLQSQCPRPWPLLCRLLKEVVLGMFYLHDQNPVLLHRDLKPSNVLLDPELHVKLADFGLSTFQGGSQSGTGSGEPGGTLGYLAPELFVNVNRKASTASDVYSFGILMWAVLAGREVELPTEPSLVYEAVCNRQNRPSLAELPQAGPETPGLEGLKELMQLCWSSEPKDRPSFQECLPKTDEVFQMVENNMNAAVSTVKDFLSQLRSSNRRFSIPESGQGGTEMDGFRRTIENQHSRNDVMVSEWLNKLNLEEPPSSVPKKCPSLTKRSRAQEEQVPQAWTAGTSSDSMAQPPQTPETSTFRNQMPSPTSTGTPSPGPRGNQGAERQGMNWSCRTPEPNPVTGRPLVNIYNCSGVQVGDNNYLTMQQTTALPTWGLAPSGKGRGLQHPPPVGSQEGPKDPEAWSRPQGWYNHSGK
- protocol_notes: Inhibition of recombinant human RIPK3 expressed in baculovirus infected Sf9 insect cells using myelin basic protein as substrate by ADP-Glo assay
pIC50: −log10 of the molar value.

record_smiles=CCCCNc1nc2ccc([N+](=O)[O-])cc2[nH]1 obs_value="< 5.00"

Q: Indicate the recorded pIC50 value for this compound: `CCCCNc1nc2cc([N+](=O)[O-])ccc2s1`
Result: < 5.00

* * *

- measurement_target: CDK9/cyclin T1 (Homo sapiens)
- Sequence (O60563 whole entry): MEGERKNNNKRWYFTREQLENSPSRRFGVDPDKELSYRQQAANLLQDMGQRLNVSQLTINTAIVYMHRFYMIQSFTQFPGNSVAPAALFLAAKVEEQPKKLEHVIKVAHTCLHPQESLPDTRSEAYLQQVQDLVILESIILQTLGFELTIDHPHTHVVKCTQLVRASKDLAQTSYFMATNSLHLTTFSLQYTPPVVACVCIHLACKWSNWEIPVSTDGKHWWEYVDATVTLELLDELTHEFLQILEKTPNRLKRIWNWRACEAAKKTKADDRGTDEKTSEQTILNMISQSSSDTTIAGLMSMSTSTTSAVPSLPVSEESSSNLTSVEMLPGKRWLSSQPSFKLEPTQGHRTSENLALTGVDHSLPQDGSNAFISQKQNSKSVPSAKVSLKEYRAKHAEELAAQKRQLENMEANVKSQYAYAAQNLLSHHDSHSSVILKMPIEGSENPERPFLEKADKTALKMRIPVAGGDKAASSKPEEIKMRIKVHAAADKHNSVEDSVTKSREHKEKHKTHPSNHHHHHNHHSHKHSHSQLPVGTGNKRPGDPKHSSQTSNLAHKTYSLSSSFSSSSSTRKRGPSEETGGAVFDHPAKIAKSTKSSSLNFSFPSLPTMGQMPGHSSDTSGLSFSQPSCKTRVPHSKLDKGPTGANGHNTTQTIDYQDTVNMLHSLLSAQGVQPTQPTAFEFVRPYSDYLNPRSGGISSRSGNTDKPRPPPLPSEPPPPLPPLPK
- Sequence (P50750 whole entry): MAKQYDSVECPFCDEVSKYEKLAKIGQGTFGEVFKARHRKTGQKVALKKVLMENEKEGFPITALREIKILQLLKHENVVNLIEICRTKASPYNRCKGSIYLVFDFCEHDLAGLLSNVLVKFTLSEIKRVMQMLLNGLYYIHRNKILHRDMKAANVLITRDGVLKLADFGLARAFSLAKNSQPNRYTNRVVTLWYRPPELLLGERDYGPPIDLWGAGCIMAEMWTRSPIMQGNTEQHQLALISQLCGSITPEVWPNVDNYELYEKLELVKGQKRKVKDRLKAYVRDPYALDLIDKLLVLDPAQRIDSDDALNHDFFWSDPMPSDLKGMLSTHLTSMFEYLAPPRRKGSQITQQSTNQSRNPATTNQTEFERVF
- protocol_notes: Inhibition of human recombinant CDK9/cyclin T expressed in baculovirus infected Sf9 insect cells using YSPTSPSYSPTSPSYSPTSPSKKKK as substrate by ADP-glo assay
readout_type: IC50 (nM)
Numbers only, in nM.

Q: Indicate the recorded IC50 value for this molecule: `CCCCNc1nc2ccc([N+](=O)[O-])cc2[nH]1`
Result: 480
